- Test system: MDA-MB-435 melanoma
- measurementNotes: NCI-60 one-dose screen, 48 h (100 = growth as untreated, 0 = no growth, -100 = all killed)
- conditions: 10 µM
The panel holds about 83,000 compounds, 20% with a hit somewhere; the sample as a whole holds those more often.
measuredParameter: growth (%)
Answers are plain numbers, in %.

Worked cases, growth given:
Name the recorded growth of the item CC(O)COc1ccc(-c2ccccc2)cc1 (stereo not drawn) in your answer.
104

Name the recorded growth of the item `CCCCC1C(=O)N(c2ccccc2)N(c2ccccc2)C1=O` in your answer.
108

Name the recorded growth of the item `CCNCCCCNCCCCNCCCCNCCCCNCC` in your answer.
50.2

Name the recorded growth of the item `O=C(CC(=O)c1ccccc1O)c1ccccc1` in your answer.
102

Name the recorded growth of the item CC1(O)OC(COc2ccc(Cl)cc2)COC1O (stereo not drawn) in your answer.
106

For every listed record, write down its growth.
1. CCOC(=O)c1[nH]c(C)c(C(=O)O)c1C
2. COc1ccc(/C(C#N)=C2C=C/C(=N/O)c3ccccc3\2)cc1
3. c1c(-c2cc(C3CC3)[nH]n2)n[nH]c1C1CC1
4. CSC(=N\N=C\c1ccc(N(C)C)cc1)/N=C/N(C)C
5. O=C1c2ccccc2C(=O)N1OCc1ccccc1

[110, -57, 109, 102, 110]
